# assay-notes: FRET assay of NBD-Toc transfer from α-TTP variants to SUVs
# Type: biochemical
# condition-parameters: relative to wild type
reported-metric: Rate of NBD-Toc transfer to SUV, Rate^mut/Rate^wt (%)

molecule	unit-symbol	val
R192H: naturally-occurring α-TTP mutant associated with heritable mild vitamin E deficiency in humans (protein, UniProt P49638 1-278, looked up, variant R192H) Alpha-tocopherol transfer …: MAEARSQPSAGPQLNALPDHSPLLQPGLAALRRRAREAGVPLAPLPLTDSFLLRFLRARDFDLDLAWRLLKNYYKWRAECPEISADLHPRSIIGLLKAGYHGVLRSRDPTGSKVLIYRIAHWDPKVFTAYDVFRVSLITSELIVQEVETQRNGIKAIFDLEGWQFSHAFQITPSVAKKIAAVLTDSFPLKVHGIHLINEPVIFHAVFSMIKPFLTEKIKERIHMHGNNYKQSLLQHFPDILPLEYGGEEFSMEDICQEWTNFIMKSEDYLSSISESIQ	%	83
F169D: α-TTP mutant, Phe169 to Asp (helix A8) (protein, UniProt P49638 1-278, looked up, variant F169D) Alpha-tocopherol transfer …: MAEARSQPSAGPQLNALPDHSPLLQPGLAALRRRAREAGVPLAPLPLTDSFLLRFLRARDFDLDLAWRLLKNYYKWRAECPEISADLHPRSIIGLLKAGYHGVLRSRDPTGSKVLIYRIAHWDPKVFTAYDVFRVSLITSELIVQEVETQRNGIKAIFDLEGWQFSHADQITPSVAKKIAAVLTDSFPLKVRGIHLINEPVIFHAVFSMIKPFLTEKIKERIHMHGNNYKQSLLQHFPDILPLEYGGEEFSMEDICQEWTNFIMKSEDYLSSISESIQ	%	12
K211A: α-TTP mutant, surface Lys211 (helix A10) to Ala (protein, UniProt P49638 1-278, looked up, variant K211A) Alpha-tocopherol transfer …: MAEARSQPSAGPQLNALPDHSPLLQPGLAALRRRAREAGVPLAPLPLTDSFLLRFLRARDFDLDLAWRLLKNYYKWRAECPEISADLHPRSIIGLLKAGYHGVLRSRDPTGSKVLIYRIAHWDPKVFTAYDVFRVSLITSELIVQEVETQRNGIKAIFDLEGWQFSHAFQITPSVAKKIAAVLTDSFPLKVRGIHLINEPVIFHAVFSMIAPFLTEKIKERIHMHGNNYKQSLLQHFPDILPLEYGGEEFSMEDICQEWTNFIMKSEDYLSSISESIQ	%	83
V206A: α-TTP mutant, Val206 to Ala (protein, UniProt P49638 1-278, looked up, variant V206A) Alpha-tocopherol transfer …: MAEARSQPSAGPQLNALPDHSPLLQPGLAALRRRAREAGVPLAPLPLTDSFLLRFLRARDFDLDLAWRLLKNYYKWRAECPEISADLHPRSIIGLLKAGYHGVLRSRDPTGSKVLIYRIAHWDPKVFTAYDVFRVSLITSELIVQEVETQRNGIKAIFDLEGWQFSHAFQITPSVAKKIAAVLTDSFPLKVRGIHLINEPVIFHAAFSMIKPFLTEKIKERIHMHGNNYKQSLLQHFPDILPLEYGGEEFSMEDICQEWTNFIMKSEDYLSSISESIQ	%	121
